- measuredOn: human LILRB2-His (human, UniProt Q8N423 22-460)
- Sequence (Q8N423 other isoform, or with tags, fused parts or gaps): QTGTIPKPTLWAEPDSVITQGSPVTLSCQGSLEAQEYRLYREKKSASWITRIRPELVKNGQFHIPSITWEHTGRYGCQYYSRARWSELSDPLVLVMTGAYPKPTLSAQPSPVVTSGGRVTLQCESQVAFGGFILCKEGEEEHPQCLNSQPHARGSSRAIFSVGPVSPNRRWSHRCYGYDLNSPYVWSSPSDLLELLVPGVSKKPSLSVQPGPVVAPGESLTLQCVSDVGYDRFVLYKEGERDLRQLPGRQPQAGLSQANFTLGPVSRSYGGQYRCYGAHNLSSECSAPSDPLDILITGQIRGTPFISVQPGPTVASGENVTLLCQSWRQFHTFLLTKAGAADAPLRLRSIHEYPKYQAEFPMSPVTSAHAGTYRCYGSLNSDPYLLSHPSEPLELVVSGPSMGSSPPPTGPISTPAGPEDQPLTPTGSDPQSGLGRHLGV
- protocolText: SPR, Sierra Sensors MASS-2; antibody captured on anti-human Fc, LILRB2-His 65 to 0.27 nM, 1:1 Langmuir fit
endpointName: koff (s⁻¹)
Numbers only here, please. The scale is s⁻¹.

Looking up J-19 (antibody, human IgG4 S228P, kappa, V domains shown, Human IgG4 chimera from a rat immunization; also called J-19.h) VH: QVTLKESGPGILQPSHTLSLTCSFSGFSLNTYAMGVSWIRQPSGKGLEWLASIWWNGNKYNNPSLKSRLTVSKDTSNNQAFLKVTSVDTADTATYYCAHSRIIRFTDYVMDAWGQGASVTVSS VL: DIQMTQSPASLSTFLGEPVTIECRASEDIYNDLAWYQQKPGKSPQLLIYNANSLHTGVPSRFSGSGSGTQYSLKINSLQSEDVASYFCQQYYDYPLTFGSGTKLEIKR , I found its koff recorded as 0.00135

***
Looking up J-11 (antibody, human IgG4 S228P, kappa, V domains shown, Human IgG4 chimera of murine origin; also called J-11.h) VH: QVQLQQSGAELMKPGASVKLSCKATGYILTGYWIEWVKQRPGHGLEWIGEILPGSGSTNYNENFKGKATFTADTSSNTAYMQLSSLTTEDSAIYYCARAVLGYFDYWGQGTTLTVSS VL: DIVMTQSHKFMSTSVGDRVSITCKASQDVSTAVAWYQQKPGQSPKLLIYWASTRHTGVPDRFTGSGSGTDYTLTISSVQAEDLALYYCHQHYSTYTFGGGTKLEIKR , I found its koff recorded as 0.000913

Looking up J-19.h1 (antibody, human IgG4 S228P, kappa, V domains shown, Humanized, human IgG4 backbone) VH: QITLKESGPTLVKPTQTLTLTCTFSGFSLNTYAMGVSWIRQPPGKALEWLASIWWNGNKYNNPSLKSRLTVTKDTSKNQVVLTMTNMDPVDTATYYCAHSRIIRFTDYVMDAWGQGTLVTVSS VL: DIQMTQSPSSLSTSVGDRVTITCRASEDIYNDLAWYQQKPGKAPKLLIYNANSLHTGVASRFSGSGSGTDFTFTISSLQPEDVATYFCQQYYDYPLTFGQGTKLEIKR , I found its koff recorded as 0.00107

Looking up J-19.h2 (antibody, human IgG4 S228P, kappa, V domains shown, Humanized, human IgG4 backbone) VH: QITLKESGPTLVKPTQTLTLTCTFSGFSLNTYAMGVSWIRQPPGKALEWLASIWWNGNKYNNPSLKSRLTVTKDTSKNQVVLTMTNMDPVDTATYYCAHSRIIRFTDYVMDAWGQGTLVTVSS VL: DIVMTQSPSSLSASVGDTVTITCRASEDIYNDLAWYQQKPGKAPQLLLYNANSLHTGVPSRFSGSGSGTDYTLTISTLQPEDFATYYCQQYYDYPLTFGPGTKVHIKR , I found its koff recorded as 0.00238

Looking up J-19.h3 (antibody, human IgG4 S228P, kappa, V domains shown, Humanized, human IgG4 backbone) VH: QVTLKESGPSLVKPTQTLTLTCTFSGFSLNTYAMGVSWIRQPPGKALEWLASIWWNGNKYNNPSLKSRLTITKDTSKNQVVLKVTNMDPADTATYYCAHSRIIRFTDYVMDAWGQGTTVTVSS VL: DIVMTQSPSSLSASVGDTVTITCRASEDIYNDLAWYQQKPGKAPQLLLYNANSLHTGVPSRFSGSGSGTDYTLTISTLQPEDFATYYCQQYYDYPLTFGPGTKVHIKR , I found its koff recorded as 0.00101

Looking up J-19.h4 (antibody, human IgG4 S228P, kappa, V domains shown, Humanized, human IgG4 backbone) VH: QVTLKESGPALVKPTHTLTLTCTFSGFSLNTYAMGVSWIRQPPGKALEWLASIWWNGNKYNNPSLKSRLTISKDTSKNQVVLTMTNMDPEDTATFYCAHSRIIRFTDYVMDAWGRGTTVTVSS VL: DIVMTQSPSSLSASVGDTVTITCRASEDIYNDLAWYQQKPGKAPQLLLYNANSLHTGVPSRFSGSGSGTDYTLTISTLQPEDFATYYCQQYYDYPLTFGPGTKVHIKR , I found its koff recorded as 0.0012
